These measurements were taken from the supplement of paper PMC12042874.

Kindly state amyloid nucleation score for each of the entries shown.
assay: amyloid nucleation score (Sup35N fusion, yeast selection) (log enrichment); library NNK2; higher = more nucleation; inactive = no reads after selection;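 further: zero at mode of non-aggregating sequences after 7 days selection at 30°C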
Numbers only.

Solved cases (5 shown):
[
  {
    "Substance": "AIYKDRGWGATGHVFRILGR",
    "amyloid nucleation score": 0.752
  },
  {
    "Substance": "NTATSN",
    "amyloid nucleation score": -0.22
  },
  {
    "Substance": "MCFSPCCRWPRIRQEDQG",
    "amyloid nucleation score": 0.531
  },
  {
    "Substance": "LFTGRNRTSTHSSDISSRN",
    "amyloid nucleation score": 0.531
  },
  {
    "Substance": "VQYMHNRMVLWFFSDPLKDR",
    "amyloid nucleation score": 2.58
  }
]

Respectfully, I request amyloid nucleation score for each entry included below.
1. RATPTSLSIAMFCLFGHALL
2. HHVGGMTV
3. IYCIFRTSKLMNGVMVHSRQ
4. KYVCVI

a:
[5.87, 0.691, -0.454, 0.809]
